For each entry below, report its IC50 value.
Dear colleague, please return just the value in µM, with no unit written.

Query: Look up IC50 with NAD(P)H dehydrogenase [quinone] 1 (Homo sapiens, UniProt P15559) for this compound: Cc1cc(=O)cc(C)o1
Sequence (P15559 whole entry): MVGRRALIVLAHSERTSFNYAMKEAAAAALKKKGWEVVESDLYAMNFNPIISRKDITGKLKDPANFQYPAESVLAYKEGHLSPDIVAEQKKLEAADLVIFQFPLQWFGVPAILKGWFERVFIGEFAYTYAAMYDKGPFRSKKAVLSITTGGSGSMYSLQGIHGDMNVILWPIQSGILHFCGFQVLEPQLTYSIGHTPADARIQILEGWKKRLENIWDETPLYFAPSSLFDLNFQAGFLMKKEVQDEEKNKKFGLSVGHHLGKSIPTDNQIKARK
Result: 20

Query: Look up IC50 with NAD(P)H dehydrogenase [quinone] 1 (Homo sapiens, UniProt P15559) for this compound: O=c1c2ccccc2c(=O)c2c1c(O)cc1[nH]c3ccccc3[nH]c12
Result: 2

Query: Look up IC50 with NAD(P)H dehydrogenase [quinone] 1 (Homo sapiens, UniProt P15559) for this compound: C(=N\NC1=NCCN1)/c1c2ccccc2c(/C=N/NC2=NCCN2)c2ccccc12
Result: 25

Query: Look up IC50 with NAD(P)H dehydrogenase [quinone] 1 (Homo sapiens, UniProt P15559) for this compound: CNC(=O)N(OC(N)=O)C(C)=O
Result: 55

Query: Look up IC50 with NAD(P)H dehydrogenase [quinone] 1 (Homo sapiens, UniProt P15559) for this compound: COc1ccc(OC)c2cc3ccccc3cc12
Result: 10

Query: Look up IC50 with NAD(P)H dehydrogenase [quinone] 1 (Homo sapiens, UniProt P15559) for this compound: Nc1nc2cc3nc(N)c(N)nc3cc2nc1N
Result: 25

Query: Look up IC50 with NAD(P)H dehydrogenase [quinone] 1 (Homo sapiens, UniProt P15559) for this compound: O=C1c2ccccc2C(=O)c2c(O)c(NCCCN(CCO)CCO)cc(O)c21
Result: 3

Query: Look up IC50 with NAD(P)H dehydrogenase [quinone] 1 (Homo sapiens, UniProt P15559) for this compound: COc1ccc2c(c1)-c1nn(CCCN(C)C)c3ccc([N+](=O)[O-])c(c13)N2
Result: 45
